Target: human LILRB4 (human, UniProt Q8NHJ6 22-448)
Assay: cell-based or functional assay
experimental endpoint: Max cell cytotoxicity (%), ADCC on THP-1 cells
The reply should be a number in %, with the unit left off.

## Input Fill in the blank: the reported Max cell cytotoxicity (%), ADCC on THP-1 cells of ch25-G9-G4-C12 (antibody, V domains shown) VH: EVQLVESGGDLVKPGGSLKLSCAASGFTFSSHGMSWVRQTPDKRLEWVATINSGGYYTYYPDSVKGRFTISRDNAKNTLYLQMSSLKSEDTAMYYCARGQLGNWYFDVWGAGTTVTVSS VL: DIVMTQSPAIMSASPGEKVTITCSASSSVSYMHWFQQKPGTSPKLWIYSTSNLASGVPARFSGSGSGTSYSLTISRMEAEDAATYYCQQRSSYPLTFGAGTKLELK is ____.
## Output 11

## Input Then this binder: ch8-B3-F6-H8 (antibody, V domains shown) VH: EVKVIESGGGLVQPGGSLKLSCAASGFDFSRYWMSWVRQAPGKGLEWIGEINPDSSAINYTPSLKDKFIISRDNAKNTLYLQMSKVRSEDTALYYCATSMTMDYWGQGTSVTVSS VL: DIVMTQSPSSMYASLGERVTITCKASQDIKSYLSWYQQKPWKSPKTLIYYATSLADGVPSRFSGSGSGQDYSLTISSLESDDTATYYCLQHGESPYTFGGGTKLEK
## Output 7.1

## Input Repeat for the following binder: ch36-F4-H1-D9 (antibody, V domains shown) VH: EVKLLESGGGLVQPGGSLKLSCAASGFDFSRYWMIWVRQAPEKGLEWIGEINPDSSTINYTPSLKDKFIISRDNAKNTLYLQMSKVRSEDTALYYCARPYYRYDVGYFDVWGAGTTVTVSS VL: DIVMTQAPKVLLVSAGDRVTISCKASQSVSNAVVWYQQKPGQSPKLLIFYASNRYTGVPDRFTGSGYGTDFTFSISTVQAEDLAVYFCQQDYSSPWTFGGGTKLEIK
## Output 17.9

## Input Same question for IO-202 (antibody, V domains shown) VH: EVQLLESGGGLVQPGGSLRLSCAASGIDFSNHYYMYWVRQAPGKGLEWIGSIFSGDSASTYYADSAKGRFTISRDNSKNTLYLQMNSLRAEDTAVYYCARGMSTNDWASDLWGQGTLVTVSS VL: DIQMTQSPSSLSASVGDRVTITCQASESINSIYLAWYQQKPGKAPKLLIYRASTLASGVPSRFSGSGSGTDFTLTISSLQPEDFATYYCQQSYDWGDVENTFGGGTKVEIK please.
## Output 13.9

## Input Next entry: ch7-B4-C1-C9 (antibody, V domains shown) VH: EVQLQQSGTELVKPGASVKLSCKASGYTFTNYWMHWVKQRPGQGLEWIGEINPSNGRTNYNEKFKTKATLTVDKSSSTAYMQLSSLTSEDSAVYYCARSTYYGYDWYFDVWGAGTTVTVSS VL: DIVLTQSPSSMYASLGERVTITCKASQDINSYLSWFQQKPGKSPKTLIYRANRLLDGVPSRFSGGGSGQDYSLTISSLEHEDMGIYYCLQCDEFPHTFGGGTKLEIK
## Output 13.9

## Input Moving on to ch2-H1-D7-E5-D5 (antibody, V domains shown) VH: EVHLVESGGGLVQPGGSRKLSCAASGFTFSSFGMHWVRQPPEKGLEWVAYISSGSSSIYYADTVKGRFTISRDNPKNTLFLQMTSLRSEDTAMYYCARGTGTGAMDYWGQGTSVTVSS VL: DIQMTQTTSSLSASLGDRVTISCRTSQDISNYLNWYQQKPDGTVKLLIYYTSKLHSGVPSRFSGSGSGTDYSLTISNLDQEDIATYFCQQGNTLPWTFGGGTKLEIK
## Output 39.6

## Input What do you have for ch27-F11-E10-G10 (antibody, V domains shown) VH: EVQLVESGGGLVQPGGSRKLSCAASGFTFSSFGMHWVRQAPEKGLEWVAYISSGSSTIYYADTVKGRFSISRDNPKNTLFLQMTSLRSEDTAMFYCARSTGTGAMDYWGQGTSVTVSS VL: DIQMTQTTSSLSASLGDRVTISCRASQDISNYLNWYQQKPDGTVKLLIYYTSRLHSGVPSRFSGSGSGTDYSLTISNLEQEDIATYFCQQGNTLPWTFGGGTKLELK ?
## Output 18.7

All figures here come from patent US20250361295A1.
